Each recorded value in this set is attributed to patent US20200297760A1.

biological target: HLA-B*08:01 (recombinant MHC class I molecule) (human); experiment: REVEAL MHC-peptide binding assay, recombinant HLA-B*08:01; settings: remark: other sources report otherwise
Hi there, I'd appreciate the recorded In Vitro Score (score, % of positive control peptide) for every entry that follows.
Answers are plain numbers.

Take a look at these entries with their results.
binder: IIFWVKRGS
quantitative-result: 0.4
--
binder: IIFWVKRGN
quantitative-result: 0.9
--
binder: IIFWVQRGA
quantitative-result: 0.2

Consider the following items and state reported In Vitro Score (score, % of positive control peptide) for each.
1. WVQRGRKKL
2. IIFWVKRGL
3. IFWVKRGSK
4. IIFWVHRGR
5. VAFIIFWVK

[45.1, 1.7, 1.2, 0.2, 0.3]
